molecular target: FLAG tagged human Ang2 (Alexis Biochemicals) (human) (UniProt O15123); test: AlphaScreen competition, periplasmic extract, FLAG-hAng2 / biotin-hTie2/Fc
Sequence (O15123 19-496): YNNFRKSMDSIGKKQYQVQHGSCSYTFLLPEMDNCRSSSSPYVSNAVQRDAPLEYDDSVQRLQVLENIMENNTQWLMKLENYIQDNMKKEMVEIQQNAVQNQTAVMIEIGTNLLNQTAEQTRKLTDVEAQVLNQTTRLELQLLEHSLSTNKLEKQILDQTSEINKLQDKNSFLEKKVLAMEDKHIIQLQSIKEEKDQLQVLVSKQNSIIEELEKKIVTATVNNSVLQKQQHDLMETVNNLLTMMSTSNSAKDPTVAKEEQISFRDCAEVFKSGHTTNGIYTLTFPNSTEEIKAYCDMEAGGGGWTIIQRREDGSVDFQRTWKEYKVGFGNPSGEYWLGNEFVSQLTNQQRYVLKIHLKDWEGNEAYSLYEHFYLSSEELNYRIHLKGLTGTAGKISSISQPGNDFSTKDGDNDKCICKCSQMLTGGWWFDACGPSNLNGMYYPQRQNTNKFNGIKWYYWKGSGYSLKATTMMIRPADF
recorded.endpoint: % inh

Answered examples (2):
INSERT INTO assay_data (binder, recorded_endpoint, result) VALUES
  ('VHH 22C07 (VHH, not shown: small tags and cut ends) VHH: EVQLVESGGGLVQAGGSLRLSCAASGFTFDDYAIGWFRQAPGKEREGVSCISSSDGSTYYADSVKGRFTISSDNAKNTVYLQMNSLKPEDTAVYYCAADFIISSKRLCLDLFGSRGQGTQVTVSS', '% inh', '73%'),
  ('VHH 25F01 (VHH, not shown: small tags and cut ends) VHH: EVQLVESGGGLVQAGGSLRLSCAVSGLPFDDYVIGWFRQAPGKEREGVSCISSSDGSTYYADSVKGRFTISSDNAKNTVYLQMNSLKPEDTAAYYCAAGGPRINIATMTCSHDEYEYDYWGQGTQVTVSS', '% inh', '67%');

Query: What value of % inh has been reported for the following binder? VHH 13A02 (VHH, not shown: small tags and cut ends) VHH: EVQLVESGGGLVQAGGSLRLSCAASGGTFSSYSMGWFRQAPGKEREFIAAINWNGDSTYYEDSVKGRFTVSRDNAKNTVYLQMNSLKPEDTAVYYCAATGWGRAYEQAYEYDVWGQGTQVTVSS
Result: 91%

Query: What value of % inh has been reported for the following binder? VHH 25G04 (VHH, not shown: small tags and cut ends) VHH: EVQLVESGGGLVQPGGSLRLSCAASGFTFGSYDMSWVRQAPGKGPEWVSAINSRGGSTYYADSVKGRFTISRDNAKNTLYLQMNSLKPEDTAVYYCATDPYSLSYYGYPLYDYWGQGTQVTVSS
Result: 90%
